Sourced from ChEMBL document CHEMBL1127645

Test Conditions: octanol/water
Measurement Label: logP

COc1cc(C(=O)O)ccc1Cc1cn(C)c2ccc(C(=O)NCC(C)CC(F)(F)F)cc12 (centres undefined) | 5.12
CCC(CNC(=O)c1ccc2c(c1)c(Cc1ccc(C(=O)O)cc1OC)cn2C)CC(F)(F)F (centres undefined) | 5.53
COc1cc(C(=O)NS(=O)(=O)c2ccccc2C)ccc1Cc1cn(C)c2ccc(C(=O)NCC(C)C(F)(F)F)cc12 (centres undefined) | 5.89
CCC(C)CNC(=O)c1ccc2c(c1)c(Cc1ccc(C(=O)NS(=O)(=O)c3ccccc3C)cc1OC)cn2C (centres undefined) | 5.85

* * *

Tested on: Cysteinyl leukotriene receptor (Cavia porcellus)
Protocol Summary: Inhibition of percent protection from LTD4-induced dyspnea in a conscious guinea pig administered intravenously
Measurement Label: ED50 (µmol/kg)

COc1cc(C(=O)NS(=O)(=O)c2ccccc2C)ccc1Cc1cn(C)c2ccc(C(=O)NC[C@H](C)CC(F)(F)F)cc12 | 0.022

a. COc1cc(C(=O)NS(=O)(=O)c2ccccc2Cl)ccc1Cc1cn(C)c2ccc(C(=O)NCC(C)CC(F)(F)F)cc12 (stereo not drawn)
b. COc1cc(C(=O)NS(=O)(=O)c2ccccc2C)ccc1Cc1cn(C)c2ccc(C(=O)NCC(C)CC(F)(F)F)cc12 (stereo not drawn)
## Task // max by ED50 over [ a , b ] State your choice using its label.
## Result b
(b: 0.036 µmol/kg, a: 0.024 µmol/kg)
